system: NCI-H1734; experiment: relative viability (nuclei count vs DMSO), 5 days (fraction); higher = more cells survive; conditions: first compound 15.81 µM
Quantity: relative viability
Reply with just the number.

For the compound shown here, O=C(O)CCCCC(CCSCc1ccccc1)SCc1ccccc1 (stereo not given) [CPI-613] + CC(=O)c1c(C)c2cnc(Nc3ccc(N4CCNCC4)cn3)nc2n(C2CCCC2)c1=O [Palbociclib] (partner 0.5 µM) , give the reported relative viability.
0.274

For the compound shown here, O=C(O)CCCCC(CCSCc1ccccc1)SCc1ccccc1 (stereo not given) [CPI-613] + CC(=O)Nc1cccc(-n2c(=O)n(C3CC3)c(=O)c3c(Nc4ccc(I)cc4F)n(C)c(=O)c(C)c32)c1 [Trametinib] (partner 0.02 µM) , give the reported relative viability.
0.631

For the compound shown here, O=C(O)CCCCC(CCSCc1ccccc1)SCc1ccccc1 (stereo not given) [CPI-613] + Cc1nc(Nc2ncc(C(=O)Nc3c(C)cccc3Cl)s2)cc(N2CCN(CCO)CC2)n1 [Dasatinib] (partner 0.075 µM) , give the reported relative viability.
0.47

For the compound shown here, O=C(O)CCCCC(CCSCc1ccccc1)SCc1ccccc1 (stereo not given) [CPI-613] + CC1(C)CCC(c2ccc(Cl)cc2)=C(CN2CCN(c3ccc(C(=O)NS(=O)(=O)c4ccc(N[C@H](CCN5CCOCC5)CSc5ccccc5)c(S(=O)(=O)C(F)(F)F)c4)cc3)CC2)C1 [Navitoclax] (partner 0.5 µM) , give the reported relative viability.
0.677

For the compound shown here, O=C(O)CCCCC(CCSCc1ccccc1)SCc1ccccc1 (stereo not given) [CPI-613] + CS(=O)(=O)N1CCN(Cc2cc3nc(-c4cccc5[nH]ncc45)nc(N4CCOCC4)c3s2)CC1 [Pictilisib] (partner 1 µM) , give the reported relative viability.
0.383
